From: patent US20100048597A1

Target: CDK2/cyclinA (Homo sapiens)
Assay: CDK2/cyclinA kinase assay, IMAP fluorescence polarization
pIC50: −log10 of the molar value.
# key: entry, value: pIC50

Before answering, review these 3 worked examples.
sample-smiles | experimental-result
Clc1cccc(Nc2nccc(-c3cccnc3NCCCn3ccnc3)n2)c1 | > 5.30
CC(=O)NCCCOc1ncccc1-c1ccnc(Nc2cccc(Cl)c2)n1 | 4.30 to 4.82
Cc1cnccc1-c1ccnc(Nc2cccc(Cl)c2)n1 | > 5.30

Quickly give me recorded pIC50 for "Clc1cccc(Nc2nccc(-c3cccnc3NCCCN3CCOCC3)n2)c1" > 5.30

Quickly give me recorded pIC50 for "CC(C)(CN)CNc1ncccc1-c1ccnc(Nc2cccc(Cl)c2)n1" > 5.30

Quickly give me recorded pIC50 for "CC(=O)NCCCNc1ncccc1-c1ccnc(Nc2cccc(S(N)(=O)=O)c2)n1" > 5.30

Quickly give me recorded pIC50 for "Cc1c(-c2ccnc(Nc3cccc(Cl)c3)n2)ccnc1Cl" < 4.30

Quickly give me recorded pIC50 for "Cc1cnc(Nc2cccc(Cl)c2)nc1-c1cccnc1NCCCn1ccnc1C" 4.30 to 4.82

Quickly give me recorded pIC50 for "Clc1cccc(Nc2nccc(-c3cccnc3NCC3CCCCC3)n2)c1" < 4.30

Quickly give me recorded pIC50 for "COc1ncccc1-c1ccnc(Nc2cccc(-c3ccccc3)c2)n1" < 4.30

Quickly give me recorded pIC50 for "COc1ncccc1-c1ccnc(Nc2cccc(-c3cnco3)c2)n1" > 5.30

Quickly give me recorded pIC50 for "CC(=O)NCCNc1ncccc1-c1ccnc(Nc2cccc(Cl)c2)n1" > 5.30

Quickly give me recorded pIC50 for "NCCCNc1ncccc1-c1ccnc(Nc2cccc(Cl)c2)n1" > 5.30

Quickly give me recorded pIC50 for "CC(=O)NCCCNc1ncccc1-c1ccnc(Nc2cccc(S(C)(=O)=O)c2)n1" 4.82 to 5.30

Quickly give me recorded pIC50 for "CCNS(=O)(=O)c1cccc(Nc2nccc(-c3cccnc3OC)n2)c1" > 5.30

----------
Target: UniProt P11802
Sequence (P11802 whole entry, species assumed): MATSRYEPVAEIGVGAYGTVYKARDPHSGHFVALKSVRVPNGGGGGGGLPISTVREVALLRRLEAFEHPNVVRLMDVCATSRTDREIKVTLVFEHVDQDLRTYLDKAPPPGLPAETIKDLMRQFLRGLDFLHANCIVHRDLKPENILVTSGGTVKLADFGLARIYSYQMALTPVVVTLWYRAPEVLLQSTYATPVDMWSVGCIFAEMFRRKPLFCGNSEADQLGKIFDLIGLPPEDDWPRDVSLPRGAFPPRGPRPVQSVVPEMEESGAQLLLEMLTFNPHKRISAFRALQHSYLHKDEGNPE
Sequence (P24385 whole entry partner, species assumed): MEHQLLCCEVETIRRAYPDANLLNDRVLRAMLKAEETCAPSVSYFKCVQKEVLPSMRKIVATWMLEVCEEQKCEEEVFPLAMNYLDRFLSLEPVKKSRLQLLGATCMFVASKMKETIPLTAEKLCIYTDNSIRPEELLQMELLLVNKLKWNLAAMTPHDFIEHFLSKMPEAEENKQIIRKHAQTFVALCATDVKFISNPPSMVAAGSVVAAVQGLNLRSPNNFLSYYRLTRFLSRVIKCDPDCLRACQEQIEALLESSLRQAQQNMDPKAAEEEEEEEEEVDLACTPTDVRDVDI
# key: entry, value: IC50

Before answering, review these 3 worked examples.
sample-smiles | IC50
COc1cnccc1-c1ccnc(Nc2cccc(S(C)(=O)=O)c2)n1 | 5 to 15 µM
COc1ncccc1-c1ccnc(Nc2cccc(S(C)(=O)=O)c2)n1 | 15 to 50 µM
COc1ccc(-c2ccnc(Nc3cccc(S(C)(=O)=O)c3)n2)c(OC)n1 | 15 to 50 µM

Quickly give me recorded IC50 for "COc1cnccc1-c1ccnc(Nc2cccc(Cl)c2)n1" 5 to 15 µM

Quickly give me recorded IC50 for "CC(=O)NCCCOc1ncccc1-c1ccnc(Nc2cccc(Cl)c2)n1" 15 to 50 µM

----------
Biological target: CDK2/cyclinA (Homo sapiens, UniProt P24941)
Experiment: CDK2/cyclinA kinase assay, IMAP fluorescence polarization
# key: entry, value: IC50

sample-smiles | IC50
CC(=O)NCCCNc1nccc(-c2ccnc(Nc3cccc([N+](=O)[O-])c3)n2)c1C | < 5 µM

Quickly give me recorded IC50 for "COc1ncccc1-c1ccnc(Nc2cccc(S(=O)(=O)NC3CCCCC3)c2)n1" > 50 µM

Quickly give me recorded IC50 for "CCNC(=O)c1cccc(Nc2nccc(-c3cccnc3OC)n2)c1" < 5 µM

----------
Molecular target: CDK9/cyclinT1 (Homo sapiens, UniProt P50750)
Sequence (P50750 whole entry): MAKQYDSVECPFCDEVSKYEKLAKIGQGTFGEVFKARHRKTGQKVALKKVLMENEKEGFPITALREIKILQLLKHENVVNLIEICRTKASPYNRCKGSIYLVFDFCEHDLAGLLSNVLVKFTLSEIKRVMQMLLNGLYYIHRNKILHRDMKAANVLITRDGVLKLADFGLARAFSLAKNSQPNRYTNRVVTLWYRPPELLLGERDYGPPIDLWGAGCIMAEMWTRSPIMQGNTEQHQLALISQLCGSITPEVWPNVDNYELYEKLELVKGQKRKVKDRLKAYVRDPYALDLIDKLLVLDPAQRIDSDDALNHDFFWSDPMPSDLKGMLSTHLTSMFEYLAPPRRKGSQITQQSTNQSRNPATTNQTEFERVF
Sequence (O60563 whole entry partner): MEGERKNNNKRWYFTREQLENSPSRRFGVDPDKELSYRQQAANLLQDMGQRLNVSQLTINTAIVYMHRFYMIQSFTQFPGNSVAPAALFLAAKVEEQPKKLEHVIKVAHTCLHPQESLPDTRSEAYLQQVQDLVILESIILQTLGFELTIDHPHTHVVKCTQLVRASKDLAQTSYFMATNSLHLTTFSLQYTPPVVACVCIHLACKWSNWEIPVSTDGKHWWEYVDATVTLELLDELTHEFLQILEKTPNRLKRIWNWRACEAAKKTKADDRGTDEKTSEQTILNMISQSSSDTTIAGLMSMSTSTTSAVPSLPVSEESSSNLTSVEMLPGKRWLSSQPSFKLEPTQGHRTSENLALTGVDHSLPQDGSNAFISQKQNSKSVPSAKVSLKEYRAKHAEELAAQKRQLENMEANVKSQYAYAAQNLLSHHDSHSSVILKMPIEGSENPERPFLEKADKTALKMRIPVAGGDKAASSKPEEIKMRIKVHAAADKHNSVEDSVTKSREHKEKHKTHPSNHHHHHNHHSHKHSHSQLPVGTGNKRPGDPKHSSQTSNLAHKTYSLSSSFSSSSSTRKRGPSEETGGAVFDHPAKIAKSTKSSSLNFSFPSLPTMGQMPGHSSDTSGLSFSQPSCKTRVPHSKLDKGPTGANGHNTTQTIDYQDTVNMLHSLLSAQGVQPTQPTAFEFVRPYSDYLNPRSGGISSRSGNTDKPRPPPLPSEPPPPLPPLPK
Experiment: CDK9/cyclinT1 kinase assay, IMAP fluorescence polarization
pIC50: −log10 of the molar value.
# key: entry, value: pIC50

Before answering, review these 3 worked examples.
sample-smiles | pIC50
CC(=O)NCCCNc1ncccc1-c1ccnc(Nc2cccc(C#N)c2)n1 | > 5.30
COc1ncccc1-c1ccnc(Nc2cccc(C3CCN(C(=O)OC(C)(C)C)CC3)c2)n1 | < 4.30
CN(C)CCCNc1ncccc1-c1ccnc(Nc2cccc(Cl)c2)n1 | > 5.30

Quickly give me recorded pIC50 for "COc1ncccc1-c1ccnc(Nc2cccc(S(=O)(=O)NC3CCCCC3)c2)n1" < 4.30

Quickly give me recorded pIC50 for "Cc1c(-c2ccnc(Nc3cccc(Cl)c3)n2)ccnc1NCCCNc1ccc(CN)cc1" > 5.30

Quickly give me recorded pIC50 for "COc1ncccc1-c1ccnc(Nc2cccc(S(C)(=O)=O)c2)n1" > 5.30

Quickly give me recorded pIC50 for "Cc1c(-c2ccnc(Nc3cccc(Cl)c3)n2)ccnc1NCCCO" > 5.30

Quickly give me recorded pIC50 for "COc1ncccc1-c1ccnc(Nc2cccc(N3CCCC3)c2)n1" > 5.30

Quickly give me recorded pIC50 for "CC(=O)NCCCNc1cc(-c2cc(C)nc(Nc3cccc(Cl)c3)n2)ccn1" > 5.30

----------
# key: entry, value: pIC50
Target: CDK5 (Homo sapiens)
Sequence (Q00535 whole entry, species assumed): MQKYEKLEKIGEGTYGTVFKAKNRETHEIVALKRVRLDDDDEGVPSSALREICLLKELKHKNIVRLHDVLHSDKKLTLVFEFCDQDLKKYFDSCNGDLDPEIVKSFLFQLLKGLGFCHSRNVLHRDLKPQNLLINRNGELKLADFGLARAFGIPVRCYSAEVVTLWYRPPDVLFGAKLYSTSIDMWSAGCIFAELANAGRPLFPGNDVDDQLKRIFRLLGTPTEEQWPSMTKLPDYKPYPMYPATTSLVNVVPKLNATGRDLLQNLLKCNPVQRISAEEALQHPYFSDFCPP
Sequence (Q15078 whole entry partner, species assumed): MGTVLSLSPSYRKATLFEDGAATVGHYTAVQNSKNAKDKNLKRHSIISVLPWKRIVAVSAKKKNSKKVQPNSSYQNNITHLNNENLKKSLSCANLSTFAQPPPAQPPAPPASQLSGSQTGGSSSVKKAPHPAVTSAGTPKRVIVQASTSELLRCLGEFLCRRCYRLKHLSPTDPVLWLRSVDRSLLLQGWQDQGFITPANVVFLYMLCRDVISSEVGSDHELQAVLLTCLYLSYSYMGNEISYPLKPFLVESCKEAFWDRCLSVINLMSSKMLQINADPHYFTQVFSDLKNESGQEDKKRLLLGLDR
pIC50: −log10 of the molar value.

Before answering, review these 2 worked examples.
molecule | pIC50
NCCCCNc1ncccc1-c1ccnc(Nc2cccc(Cl)c2)n1 [Compound 84] | > 5.30
Clc1cccc(Nc2nccc(-c3cccnc3NCCc3c[nH]cn3)n2)c1 [Compound 79] | > 5.30

Next molecule, pIC50 to be filled in.
State recorded pIC50 with CDK5 (Homo sapiens), entry OCCCNc1ncccc1-c1ccnc(Nc2cccc(Cl)c2)n1 [Compound 74] , no comment. > 5.30

----------
Molecular target: CDK1/cyclinB (Homo sapiens, UniProt P06493)
Construct: purchased Millipore
Sequence (P06493 whole entry): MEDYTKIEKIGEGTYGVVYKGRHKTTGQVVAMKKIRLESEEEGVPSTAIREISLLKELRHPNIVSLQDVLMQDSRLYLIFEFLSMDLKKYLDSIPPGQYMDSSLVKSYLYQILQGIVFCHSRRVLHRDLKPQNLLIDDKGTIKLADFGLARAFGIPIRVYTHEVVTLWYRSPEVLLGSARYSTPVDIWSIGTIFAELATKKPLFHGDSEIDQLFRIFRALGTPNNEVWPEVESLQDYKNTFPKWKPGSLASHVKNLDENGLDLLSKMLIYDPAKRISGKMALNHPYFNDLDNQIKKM
Sequence (P14635 whole entry partner): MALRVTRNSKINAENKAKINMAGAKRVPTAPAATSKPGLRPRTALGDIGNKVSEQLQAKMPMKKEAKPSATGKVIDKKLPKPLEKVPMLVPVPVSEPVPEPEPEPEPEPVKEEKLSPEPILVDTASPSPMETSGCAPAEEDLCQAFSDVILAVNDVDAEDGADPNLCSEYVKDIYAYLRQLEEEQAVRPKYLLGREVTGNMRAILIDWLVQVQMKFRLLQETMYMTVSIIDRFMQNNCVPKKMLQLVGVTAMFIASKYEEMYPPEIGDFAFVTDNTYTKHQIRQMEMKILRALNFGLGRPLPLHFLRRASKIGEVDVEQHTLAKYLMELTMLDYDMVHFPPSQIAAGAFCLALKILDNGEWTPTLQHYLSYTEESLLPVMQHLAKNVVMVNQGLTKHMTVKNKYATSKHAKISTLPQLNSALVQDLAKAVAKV
Assay: CDK1/cyclinB kinase assay, IMAP fluorescence polarization
Format: biochemical
Details: read-out: CDK1 IC50
property-label: IC50

compound | experimental-result
Cc1c(-c2ccnc(Nc3cccc(Cl)c3)n2)ccnc1NCCCN1CCOCC1 [Compound 22] | 5 to 15 µM

Next compound, IC50 to be filled in.
Quickly give me recorded IC50 for Clc1cccc(Nc2nccc(-c3cccnc3Cl)n2)c1 [Compound 43] < 5 µM

----------
Target: CDK1/cyclinB (Homo sapiens, UniProt P06493)
Construct: purchased Millipore
Assay: CDK1/cyclinB kinase assay, IMAP fluorescence polarization
Assay type: biochemical
Conditions: read-out: CDK1 IC50
pIC50: −log10 of the molar value.
property-label: pIC50

Before answering, review these 10 worked examples.
sample-smiles | property-label | experimental-result
COc1ncccc1-c1ccnc(Nc2cccc(C3CCN(C(=O)OC(C)(C)C)CC3)c2)n1 | pIC50 | < 4.30
CC(=O)NCCCNc1nccc2c1CCc1cnc(Nc3cccc(Cl)c3)nc1-2 | pIC50 | 4.82 to 5.30
CC(=O)NCCNc1ncccc1-c1ccnc(Nc2cccc(Cl)c2)n1 | pIC50 | > 5.30
CC(=O)NCCCNc1nccc(-c2ccnc(N(C)c3cccc(Cl)c3)n2)c1C | pIC50 | < 4.30
COc1cnccc1-c1nc(Nc2cccc(S(N)(=O)=O)c2)ncc1C | pIC50 | 4.82 to 5.30
Cc1cnccc1-c1ccnc(Nc2cccc(Cl)c2)n1 | pIC50 | > 5.30
CCc1c(-c2ccnc(Nc3cccc(Cl)c3)n2)ccnc1NCCCNC(C)=O | pIC50 | > 5.30
NCCCNc1ncccc1-c1ccnc(Nc2cccc(Cl)c2)n1 | pIC50 | > 5.30
COc1cnccc1-c1ccnc(Nc2cccc(Cl)c2)n1 | pIC50 | > 5.30
Cc1c(-c2ccnc(Nc3cccc(Cl)c3)n2)ccnc1NCCC(=O)O | pIC50 | 4.82 to 5.30

State recorded pIC50 with CDK1/cyclinB (Homo sapiens, UniProt P06493), entry "O=C1CCCN1CCCNc1ncccc1-c1ccnc(Nc2cccc(Cl)c2)n1" , no comment. > 5.30

State recorded pIC50 with CDK1/cyclinB (Homo sapiens, UniProt P06493), entry "CCCCNS(=O)(=O)c1cccc(Nc2nccc(-c3cccnc3OC)n2)c1" , no comment. > 5.30

State recorded pIC50 with CDK1/cyclinB (Homo sapiens, UniProt P06493), entry "CC(=O)NCC(C)(C)CNc1ncccc1-c1ccnc(Nc2cccc(Cl)c2)n1" , no comment. > 5.30

State recorded pIC50 with CDK1/cyclinB (Homo sapiens, UniProt P06493), entry "Cc1cc(-c2ccnc(Nc3cccc(Cl)c3)n2)cc(NCCCN)n1" , no comment. > 5.30

----------
Biological target: CDK2/cyclinA (Homo sapiens, UniProt P24941)
Experiment: CDK2/cyclinA kinase assay, IMAP fluorescence polarization
pIC50: −log10 of the molar value.
property-label: pIC50

sample-smiles | pIC50
CCOC(=O)c1cccc(Nc2nccc(-c3cccnc3OC)n2)c1 | > 5.30
COc1cnccc1-c1ccnc(Nc2cccc(S(C)(=O)=O)c2)n1 | > 5.30
CC(=O)NCCCNc1cc(-c2ccnc(Nc3cccc(Cl)c3)n2)cc(C)n1 | > 5.30

Quickly give me recorded pIC50 for "CS(=O)(=O)NCCCNc1ncccc1-c1ccnc(Nc2cccc(Cl)c2)n1" > 5.30

Quickly give me recorded pIC50 for "Cc1nccn1CCCNc1ncccc1-c1ccnc(Nc2cccc(Cl)c2)n1" > 5.30

Quickly give me recorded pIC50 for "CNS(=O)(=O)c1cccc(Nc2nccc(-c3cccnc3OC)n2)c1" > 5.30

Quickly give me recorded pIC50 for "CNCCCNc1ncccc1-c1ccnc(Nc2cccc(Cl)c2)n1" 4.82 to 5.30

Quickly give me recorded pIC50 for "CC(=O)OCCCNc1ncccc1-c1ccnc(Nc2cccc(Cl)c2)n1" > 5.30
